- Tested on: CAKI-1
- Experiment notes: NCI tumour cell line growth inhibition, 48 h
The source made the active and inactive calls. Rule as the data show it: active = GI50 up to about 1.1 µM and inactive = higher.
Each entry below lists one item and its recorded GI50 value.

Compound	GI50
COc1cc(/C=C2\C[C@H]3[C@@H]4CC=C5C[C@@H](N6CCCC6)CC[C@]5(C)[C@H]4CC[C@]3(C)[C@H]2OC(C)=O)cc(OC)c1OC	17 µM (inactive)
CC(=O)c1c(-c2ccco2)c(C#N)c(=S)n(C2OC(CO)C(O)C(O)C2O)c1C (stereo not drawn)	> 100 µM (inactive)
O=Cc1ccccc1OCCOc1cc(OCCOc2ccccc2C=O)c(OCCOc2ccccc2C=O)cc1OCCOc1ccccc1C=O	> 70.6 µM (inactive)
Fc1c(F)c(C(F)(F)F)c(F)c(F)c1N/N=C/c1cn(Cc2ccccc2)c2ccccc12	21.3 µM (inactive)
Cn1c(=O)c2nc(CS(=O)(=O)Cc3nc4c(=O)n(C)c(=O)n(C)c4[nH]3)[nH]c2n(C)c1=O	> 100 µM (inactive)
Oc1nnc(CNc2ccc(Cl)cc2Cl)c2ccccc12	24.1 µM (inactive)
CCOC(=O)N1[C@@H]2CCC[C@@H]2C(=O)[C@@H]2CCC[C@@H]21	> 100 µM (inactive)
COC(=O)[C@@H]1C(=O)O[C@@H](c2ccc(OC)c(OC)c2OC)[C@@H]1C(=O)OC.COC(=O)[C@H]1C(=O)O[C@@H](c2ccc(OC)c(OC)c2OC)[C@@H]1C(=O)OC	> 100 µM (inactive)
